Assign conversion to 1,5-cz-[Ln(Lig)] with hydrolysed group in the side chain, Lu^III to each entry below.
Test summary: Formation of 1,5-cz-[Ln(Lig)] from Lig and Ln^III ions (metal dependent click-zip), MOPS/NaOH buffer pH 7.0, analytical HPLC (Charts 1, 2)
Test conditions: Lu^III; after 1 hour at 80° C.; MOPS/NaOH buffer pH 7.0
Numbers only, in %.

Recorded results for 3 compounds are shown here.
1. C#Cc1cccc(CN2CCN(CC(=O)O)CCN(Cc3cc(C(=O)OC)cc(CN=[N+]=[N-])n3)CCN(CC(=O)O)CC2)n1	30
2. C#Cc1cccc(CN2CCN(CC(=O)O)CCN(Cc3cc(C(=O)OC(C)C)cc(CN=[N+]=[N-])n3)CCN(CC(=O)O)CC2)n1	6
3. CC(C)(C#Cc1cccc(CN2CCN(CC(=O)O)CCN(Cc3cccc(CN=[N+]=[N-])n3)CCN(CC(=O)O)CC2)n1)NC(=O)OC(C)(C)C	9

Let us move to another entry and its conversion to 1,5-cz-[Ln(Lig)] with hydrolysed group in the side chain, Lu^III.
Data request: I would be grateful if you could share the reported conversion to 1,5-cz-[Ln(Lig)] with hydrolysed group in the side chain, Lu^III for C#Cc1cccc(CN2CCN(CC(=O)O)CCN(Cc3cc(C(=O)OC(C)(C)C)cc(CN=[N+]=[N-])n3)CCN(CC(=O)O)CC2)n1 .
Data returned: 61

* * *

Test summary: Formation of 1,5-cz-[Ln(Lig)] from Lig and Ln^III ions (metal dependent click-zip), MOPS/NaOH buffer pH 7.0, analytical HPLC (Charts 1, 2)
Test conditions: La^III; after 1 week at 80° C.; MOPS/NaOH buffer pH 7.0
Experimental endpoint: conversion to 1,5-cz-[Ln(Lig)], La^III (%)
One number for each entry, in %.

Recorded results for 10 compounds are shown here.
1) CC(C)(C)C#Cc1cccc(CN2CCN(CC(=O)O)CCN(Cc3cccc(CN=[N+]=[N-])n3)CCN(CC(=O)O)CC2)n1 [TD959]	18
2) C#Cc1cccc(CN2CCN(CC(=O)O)CCN(Cc3cc(C(=O)OC(C)C)cc(CN=[N+]=[N-])n3)CCN(CC(=O)O)CC2)n1 [TD1148]	0
3) C#Cc1cccc(CN2CCN(CC(=O)O)CCN(Cc3cc(-c4ccc(C(=O)O)cc4)cc(CN=[N+]=[N-])n3)CCN(CC(=O)O)CC2)n1 [TD742]	40
4) C#Cc1cccc(CN2CCN(CC(=O)O)CCN(Cc3cc(Cl)cc(CN=[N+]=[N-])n3)CCN(CC(=O)O)CC2)n1 [TD764]	25
5) C#Cc1cccc(CN2CCN(CC(=O)O)CCN(Cc3cc(C(F)(F)F)cc(CN=[N+]=[N-])n3)CCN(CC(=O)O)CC2)n1 [TD1063]	5
6) C#Cc1cccc(CN2CCN(CCC(=O)O)CCN(Cc3cccc(CN=[N+]=[N-])n3)CCN(CCC(=O)O)CC2)n1 [TD801]	0
7) C#Cc1cccc(CN2CCN(CP(=O)(O)OCC)CCN(Cc3cccc(CN=[N+]=[N-])n3)CCN(CP(=O)(O)OCC)CC2)n1 [TD582]	0
8) C#Cc1cccc(CN2CCN(CP(=O)(O)c3ccccc3)CCN(Cc3cccc(CN=[N+]=[N-])n3)CCN(CP(=O)(O)c3ccccc3)CC2)n1 [TD921]	0
9) [N-]=[N+]=NCc1cc(-c2ccccc2)cc(CN2CCN(CC(=O)O)CCN(Cc3cccc(C#CCN)n3)CCN(CC(=O)O)CC2)n1 [TD722]	2
10) [N-]=[N+]=NCc1cccc(CN2CCN(CC(=O)O)CCN(Cc3cccc(C#CC45CC6CC(CC(C6)C4)C5)n3)CCN(CC(=O)O)CC2)n1 [TD992]	22

The following compounds each have a reported value; give each one's conversion to 1,5-cz-[Ln(Lig)], La^III.
1. CC(C)(C#Cc1cccc(CN2CCN(CC(=O)O)CCN(Cc3cccc(CN=[N+]=[N-])n3)CCN(CC(=O)O)CC2)n1)NC(=O)OC(C)(C)C [TD1105]
2. C#Cc1cccc(CN2CCN(CC(=O)O)CCN(Cc3cccc(CN=[N+]=[N-])n3)CCN(CP(=O)(O)O)CC2)n1 [TD714]
3. [N-]=[N+]=NCc1cccc(CN2CCN(CC(=O)O)CCN(Cc3cccc(C#CC4CCNCC4)n3)CCN(CC(=O)O)CC2)n1 [TD1127]

Data returned:
1. 0
2. 4
3. 18
